# Tested Target: EmrE (Escherichia coli, UniProt P23895, G90V)
# Assay Summary: biochemical
Parameter Measured: Kd (nM)
The answer is to be given in nM; state only the numeric part.

Note to self: Kd recorded for "c1ccc([P+](c2ccccc2)(c2ccccc2)c2ccccc2)cc1" was 5.3
